meta.source: paper PMC5712561

- System: H1975 cells
- assayProtocol: Growth inhibition, sulforhodamine B assay, H1975
- Type: cell-based
- conditionSet: Homo sapiens, NCI-H1975, 72 h, H1975 (EGFR L858R/T790M), 72 h; read-out: IC50
measurementType: IC50
# include the unit after the value

Task item: What does the record list as IC50 for CCc1cc2c(cc1CC)CC(NC[C@H](O)c1ccc(O)c3[nH]c(=O)ccc13)C2 ?
Reply: 14.3 µM

###

- Test system: BEAS-2B cells
- assayProtocol: Cytotoxicity in normal lung epithelial cell line BEAS-2B
- Type: cell-based, human
- conditionSet: Homo sapiens; BEAS-2B normal lung epithelial cells
measurementType: IC50

Task item: What does the record list as IC50 for C#Cc1cccc(Nc2ncnc3cc(OCCOC)c(OCCOC)cc23)c1 [Erlotinib] ?
Reply: ~20 µM
